# protocol-notes: Elimination half life in Crl:CD(SD) rat at 1 mg/kg, iv by LC-MS/MS analysis
# Format: ADME, organism-based
# cond: in vivo, read-out: beta t1/2 (converted)
value-kind: half-life
Your reply should be a number followed by the unit it is expressed in.

State the recorded half-life for this entry: Cc1nc(OCC(=O)N(C)C2CCN(Cc3ccccc3)CC2)nc(C)c1N
1.4 h

State the recorded half-life for this entry: CN(C(=O)COc1ccc(Cl)nn1)C1CCN(CC2CC2(F)F)CC1 (stereo not drawn)
1.7 h

State the recorded half-life for this entry: Cc1nc(OCC(=O)N(C)C2CCN(CC3CC3(F)F)CC2)nc(C)c1N.Cl (racemic)
2.7 h

----------
# protocol-notes: AUC in Crl:CD(SD) rat at 10 mg/kg, po by LC-MS/MS analysis
# Format: ADME, organism-based
# cond: in vivo
value-kind: AUC (ng·h/mL)
Expressed in ng·h/mL, but write only the number.

State the recorded AUC for this entry: Cc1nc(OCC(=O)N(C)C2CCN(Cc3ccccc3)CC2)nc(C)c1N
3700

----------
# Organism: Rattus norvegicus
# protocol-notes: Modulation of FGFR in Wistar rat cerebrocortical/hippocampal neuronal cells assessed as protection against glutamate-induced neuronal cell death by measuring cell survival at 10 uM pretreated for 24 hrs followed by glutamate-stimulation by CCK8 assay relative to SUN13837
value-kind: Activity (%)
Expressed in %, but write only the number.

State the recorded Activity for this entry: CN(C(=O)COc1ccc(Cl)nn1)C1CCN(Cc2ncccc2F)CC1
44

State the recorded Activity for this entry: CN(C(=O)COc1ccc(Cl)nn1)C1CCN(CC(F)(F)F)CC1
74

State the recorded Activity for this entry: Cc1nc(OCC(=O)N(C)C2CN(Cc3ccccc3)C2)nc(C)c1N
127

State the recorded Activity for this entry: Cc1nc(OCC(=O)N(C)C2CCN(Cc3ncccn3)CC2)nc(C)c1N
96

State the recorded Activity for this entry: Cc1nc(OCC(=O)N(C)C2CCN(C3COC3)CC2)nc(C)c1N
78

The origin of these recorded values is ChEMBL document CHEMBL4622926.
